Give kon for every item shown.
Molecular target: T1, human MSLN-FL-his protein (human, UniProt Q13421 296-580)
T1 construct: made in HEK293E cells, purified on nickel column; also called hMSLN-FL-his; human MSLN full-length protein; not shown: His tag
T1 sequence (Q13421 other isoform, or with tags, fused parts or gaps): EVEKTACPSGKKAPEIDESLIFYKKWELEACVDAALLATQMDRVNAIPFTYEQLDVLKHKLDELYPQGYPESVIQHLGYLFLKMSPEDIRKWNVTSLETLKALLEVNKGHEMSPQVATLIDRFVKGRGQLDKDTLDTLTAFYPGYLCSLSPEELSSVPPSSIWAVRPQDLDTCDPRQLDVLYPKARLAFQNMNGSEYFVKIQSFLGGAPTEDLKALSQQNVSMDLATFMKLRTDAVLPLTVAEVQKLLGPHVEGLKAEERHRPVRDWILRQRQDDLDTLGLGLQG
Test: SPR (Biacore), antibody captured on Protein A chip;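 further: flow cell at 25 °C, antigen injected for 240 s at five concentrations from 200 nM downward, dissociation followed up to 600 s, double-referenced, fitted with Langmuir 1:1 model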
Answers are plain numbers, in M⁻¹ s⁻¹.

>  <Binder>
S009-F7.2.3 (antibody, human IgG1, kappa, V domains shown, human-murine chimeric antibody, human IgG1/kappa constant regions) VH: ELQLVESGGDLVKPGGSLKLSCAASGFTFSSNGMSWLRQTPDKRLEWVATISSGGRYTYYPDSVKGRFTISRDNAKNTLYLQMSSLKSEDTAMYYCARRGIYDYFDCWGQGTTLTVSS VL: DIQMTQSPASLSISVGETVTITCRASENIHSSLAWYQQKQGKSPQLLVYAATNLADGVPSRFSGSGSGSQYSLKINSLQSEDFGTYYCQHFWGTPWTFGGGTKLDIKR

>  <kon, M⁻¹ s⁻¹>
643000

$$$$
>  <Binder>
S009-F7.21.16 (antibody, human IgG1, kappa, V domains shown, human-murine chimeric antibody, human IgG1/kappa constant regions) VH: QVQLQQPGTELVKPGASVKLSCKASGYTFTTFWMHWVKQRPGQGLEWIGGVNPTNGGTNYNEKFRTKATLTVDKSSTTADMQLSSLTSEDSAVYYCAPHYISSRPGFAYWGQGTLVTVSG VL: DIVMTQSQKFMSTSGGDRVSVTCKASQNVGTNVAWYQQKPGQSPKALIYSASYRYSGVPDRFTGSGSGTDFILTISNVQSEDLAEYFCQQYNSYPLTFGGGTKLEIKR

>  <kon, M⁻¹ s⁻¹>
458000

$$$$
>  <Binder>
S009-F8-5.15 (antibody, human IgG1, kappa, V domains shown, human-murine chimeric antibody, human IgG1/kappa constant regions) VH: QVQLQQPGTELVKPGASVKLSCKASGYTFTSYWMHWVKQRPGQGLEWIGHSNPSNGGTNYNEKFKSKATLTVDKSSSTAYMQLSSLTSEDSAVYYCARWVRGSNYEYFDVWGTGTTVTVSS VL: DIVMTQSQKFMSTTVGDRVSIICKASQNVGSAVAWCQQKPGQSPKLLIYSASNRYTGVPDRFTGSGSGTDFTLTISNMQSEDLADYFCQQYSSYPLTFAGGTKLEIKR

>  <kon, M⁻¹ s⁻¹>
620000

$$$$
>  <Binder>
S009-F7.30.5 (antibody, human IgG1, kappa, V domains shown, human-murine chimeric antibody, human IgG1/kappa constant regions) VH: QVQLQQPKTELVKPGASVKLSCKASGYIFTTYWMHWVKQRPGQGLEWIGNVNPSNGGTMYNEKFERRATLTVDKSSSTADMQLSSLTSEDSAVYYCVPHYIGSRPGFAYWGQGTLVTVSG VL: DIVMTQSQKFMSTSVGDRVSVTCKASQNVGTNVAWYQHKPGQSPKALLYSASYRYSGVPDRFTGSGSGTDFTLTITNVQSEDLAEYFCQQYNSYPLTFGGGTKLEIKR

>  <kon, M⁻¹ s⁻¹>
184000

$$$$
>  <Binder>
S009-F8-19.21 (antibody, human IgG1, kappa, V domains shown, human-murine chimeric antibody, human IgG1/kappa constant regions) VH: EFQLQQSGPELVKPGASVKISCKTSGYSFTDYNMNWVKQSNGKSLEWIGVINPNYGTTGYNQKFKGKATLTVDQSSSTAYMQLNSLTSEDSAVYYCARGGYDGEAMDYWGHGTSVTVSS VL: QIVLTQSPAIMSASPGEKVTMTCSASSSVNYMHWYQQKSGTSPKRWIYDTSKLASGVPARFSGSGSGTSYSLTISSMEAEDAATYYCQQWSSYPPTFGGGTKLEIKR

>  <kon, M⁻¹ s⁻¹>
871000

$$$$
>  <Binder>
S009-F7.26.15 (antibody, human IgG1, kappa, V domains shown, human-murine chimeric antibody, human IgG1/kappa constant regions) VH: DVQLQESGPGLVKPSQTVFLTCTVTGISITTGNYRWSWIRQFPGNKLEWIGYIYYTGFITYNPSLTSRTTITRDTPKNQFFLEMKSLTAEDTATYYCARDDYDYDVFAYWGQGTLVTVSA VL: DIQMTQSPASLSASVGETVTITCRASGNIHNYLAWYHQKQGKSPQFLVYKAKTLADGVPSRFSGSGSGTQYSLKINRLQPEDFGSYYCQHFLSIPLTFGAGTKLELKR

>  <kon, M⁻¹ s⁻¹>
4.88e+06

$$$$

Ask: Fill in the blank: the reported kon of S009-F8-28.23 (antibody, human IgG1, kappa, V domains shown, human-murine chimeric antibody, human IgG1/kappa constant regions) VH: EVQLVESGGDLVKPGGSLKLSCAASGFTFSSYAMSWVRQTPEKRLEWVATISDGGSYTYYPDNVEGRFTISRDNAKNNLYLQMSHLKSEDTAMYYCAGDRGYSYALDYWGQGTSVTVSS VL: NIMMTQSPSSLAVSAGEKVTMSCKSSQSVLYSSNQKNYLAWYQQKPGQSPKLLIYWASTRESGVPDRFTGSGSGTDFTLTISSVQAEDLAVYYCHQYLSSLTFGAGTKLELKR is ____.
Result: 192000
